- Tested on: Staphylococcus aureus
- test_protocol: Antimicrobial activity against Staphylococcus aureus USA300/ST8 incubated for 20 hrs by microdilution method
- test_conditions: USA300 ST8, 20 h
reported_endpoint: MIC (µg/mL)
Just the number please, in µg/mL, no unit attached.

Some molecules with known MIC results, for comparison:
> print(dat)
                                 cpd.smiles           study.target  assay.result
1  CC(C)(C)c1cccc(NCc2cc([N+](=O)[O-])ccc2O)c1  Staphylococcus aureus             8
2  CC(C)(C)c1ccccc1NCc1cc([N+](=O)[O-])ccc1O  Staphylococcus aureus             2
3     O=[N+]([O-])c1ccc(O)c(CNc2ccccc2Cl)c1  Staphylococcus aureus             4
4  Cc1onc(-c2ccccc2)c1C(=O)N[C@@H]1C(=O)N2[C@@H]1SC(C)(C)[C@@H]2C(=O)O  Staphylococcus aureus            32
5  O=[N+]([O-])c1ccc(O)c(CNc2ccccc2C(F)(F)F)c1  Staphylococcus aureus             2

Could you tell me which MIC is on file for `C#Cc1cccc(NCc2cc([N+](=O)[O-])cc(Br)c2O)c1` ?
4

And the next one, `CC(C)(C)c1ccc(NCc2cc([N+](=O)[O-])ccc2O)cc1` ?
4

And the next one, `O=[N+]([O-])c1ccc(O)c(CNc2cccc(Cl)c2)c1` ?
8

And the next one, `O=C(O)c1cn(C2CC2)c2cc(N3CCNCC3)c(F)cc2c1=O` ?
4
